Biological target: THR alpha (Homo sapiens, UniProt P10827)
Construct: expressed in transfected cells; host or cells: HEK293T (ATCC CRL-3216)
Sequence (P10827 1-410 isoform P10827-2): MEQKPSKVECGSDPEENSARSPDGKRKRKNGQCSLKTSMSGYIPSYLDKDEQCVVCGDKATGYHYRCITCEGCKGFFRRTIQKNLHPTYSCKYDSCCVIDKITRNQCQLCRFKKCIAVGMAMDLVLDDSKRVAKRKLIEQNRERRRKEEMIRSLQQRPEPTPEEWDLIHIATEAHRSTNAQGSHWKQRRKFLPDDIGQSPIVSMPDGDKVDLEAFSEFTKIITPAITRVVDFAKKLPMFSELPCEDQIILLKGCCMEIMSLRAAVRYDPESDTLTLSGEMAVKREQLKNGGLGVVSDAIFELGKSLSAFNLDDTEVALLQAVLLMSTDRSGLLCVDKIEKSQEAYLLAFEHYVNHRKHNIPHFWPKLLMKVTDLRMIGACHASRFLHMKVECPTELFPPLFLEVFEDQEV
Sequence (P19793 whole entry partner): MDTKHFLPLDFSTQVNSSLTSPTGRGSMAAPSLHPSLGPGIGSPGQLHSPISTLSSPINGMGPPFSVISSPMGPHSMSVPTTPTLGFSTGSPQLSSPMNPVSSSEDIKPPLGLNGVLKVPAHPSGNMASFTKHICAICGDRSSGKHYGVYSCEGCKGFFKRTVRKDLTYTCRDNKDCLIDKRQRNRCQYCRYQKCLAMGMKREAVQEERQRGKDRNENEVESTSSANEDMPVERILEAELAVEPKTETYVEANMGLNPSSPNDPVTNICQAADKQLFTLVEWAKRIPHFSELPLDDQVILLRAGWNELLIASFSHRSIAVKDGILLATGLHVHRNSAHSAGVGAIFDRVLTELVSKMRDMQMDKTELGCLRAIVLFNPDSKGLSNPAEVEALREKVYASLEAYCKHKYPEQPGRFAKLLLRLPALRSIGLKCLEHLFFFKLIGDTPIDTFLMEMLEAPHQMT
Assay: HEK293T THR alpha/RXR luciferase reporter assay (Assay 2)
Assay type: cell-based
Details: Table 4; THR-alpha; Assay 2; read-out: Activity category Assay 2 (EC50, THR-alpha agonist activity)
pEC50: −log10 of the molar value.
measurement-label: pEC50

molecule	pEC50
Nc1nn(-c2cc(Cl)c(Oc3cc(C4CCc5ccccc54)c(=O)[nH]n3)c(Cl)c2)c(=O)[nH]c1=O (stereo not shown) [Compound 156]	5.00 to 6.00
CO[C@H]1C[C@@H](c2cc(Oc3c(Cl)cc(-n4nc(N)c(=O)[nH]c4=O)cc3Cl)n[nH]c2=O)C1 [Compound 103]	< 5.00
CC(C)c1cc(Oc2c(Cl)cc(-c3nn(C(F)F)c(=O)[nH]c3=O)cc2Cl)n[nH]c1=O [Compound 28]	5.00 to 6.00

Exercise: Supply measured pEC50 of CC(c1cc(Oc2c(Cl)cc(-n3nc(N)c(=O)[nH]c3=O)cc2Cl)n[nH]c1=O)C1CC(F)(F)C1 (single isomer, unassigned) [Compound 61-B] in your reply.
Solution: 6.00 to 6.60

Exercise: // Input: CC(C)c1cc(Oc2c(Br)cc(-n3nc(N)c(=O)[nH]c3=O)cc2Br)n[nH]c1=O [Compound 81] . Output its pEC50 only.
Solution: > 7.30

Exercise: Return reported pEC50. Input molecule: Nc1nn(-c2cc(Cl)c(Oc3cc(C(O)C4CCCC4)c(=O)[nH]n3)c(Cl)c2)c(=O)[nH]c1=O (stereo not shown) [Compound 77]
Solution: 6.00 to 6.60

Exercise: Dear colleague, please send me the reported pEC50 for Cc1cc(-n2nc(N)c(=O)[nH]c2=O)cc(C)c1Cc1ccc2c(c1)C1(CCCC1)C(=O)N2 [Compound 150] when you can.
Solution: > 7.30
